system_tested: HLA-A*02:01 heavy chain / β2-microglobulin (human)
measurement_description: differential scanning fluorimetry
experimental_endpoint: Tm of the peptide/HLA-A2 complex (°C)
# output: bare number, implied unit °C

VLLGVKLFGV [COL18A1 neoantigen peptide …]
60.9
GIVEGLITTV [GAPDH neoantigen peptide …]
58.5
FIASNGVKLV [ACTININ neoantigen peptide …]
56.9

// below: Tm of the peptide/HLA-A2 complex requested for another binder
State its Tm of the peptide/HLA-A2 complex: VLHDDLLEA [KIAA0223 neoantigen peptide …]
59.7
